Some compounds, each annotated with its measured Ratio EC50.
tested on: Human immunodeficiency virus 1; test: Selectivity index, ratio of EC50 for Human immunodeficiency virus 1 isolate M3 expressing protease L10I, K20R, M36I, G48V, I62V, A71V, V82A, I93L mutant to EC50 for Human immunodeficiency virus 1 3B expressing wild-type protease; type: functional

Known results for compounds:
smiles-data | reading
CC(C)CN(C[C@@H](O)[C@H](Cc1ccccc1)NC(=O)O[C@H]1CO[C@H]2OC[C@H](O)[C@H]21)S(=O)(=O)c1ccc(N)cc1 | <0.1
CNc1nc2ccc(S(=O)(=O)N(CC(C)C)C[C@@H](O)[C@H](Cc3ccccc3)NC(=O)O[C@H]3CO[C@H]4OC[C@H](OCc5ccccc5)[C@H]43)cc2o1 | 1.3

Field: next compound
-- ask Requested field: Ratio EC50. Item: `CNc1nc2ccc(S(=O)(=O)N(CC(C)C)C[C@@H](O)[C@H](Cc3ccccc3)NC(=O)O[C@H]3CO[C@H]4OC[C@H](OCSC)[C@H]43)cc2o1`
-- reply 1.7

Entry source: ChEMBL document CHEMBL2040835
